# system: SARS-CoV-2 RBD (Severe acute respiratory syndrome coronavirus 2)
reported_metric: Kd (µM)

1) O=c1c(O)c(-c2ccc(O)c(O)c2)oc2cc(O)cc(O)c12 [compound 4, quercetin] : 75.6

The values you see were collected from paper PMC9167803.
